Target: Human tPA (Homo sapiens)
Sequence (P00750 36-562): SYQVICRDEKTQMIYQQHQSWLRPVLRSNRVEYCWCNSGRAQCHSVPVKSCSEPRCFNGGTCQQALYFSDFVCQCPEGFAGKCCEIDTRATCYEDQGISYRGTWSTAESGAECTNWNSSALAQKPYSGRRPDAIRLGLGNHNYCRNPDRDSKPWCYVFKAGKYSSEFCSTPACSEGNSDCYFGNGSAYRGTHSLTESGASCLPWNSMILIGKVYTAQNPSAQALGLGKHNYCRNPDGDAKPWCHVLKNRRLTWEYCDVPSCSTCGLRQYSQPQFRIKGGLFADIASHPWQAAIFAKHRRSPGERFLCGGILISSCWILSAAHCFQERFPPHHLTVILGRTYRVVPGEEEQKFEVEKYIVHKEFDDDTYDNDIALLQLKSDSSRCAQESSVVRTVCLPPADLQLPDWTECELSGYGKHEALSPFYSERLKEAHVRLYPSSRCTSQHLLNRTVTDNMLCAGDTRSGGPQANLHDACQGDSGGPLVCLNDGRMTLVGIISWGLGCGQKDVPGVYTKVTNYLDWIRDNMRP
Assay: biochemical
Conditions: read-out: tPA % inhibition at 99 μM
Form field: inhibition at 99 µM (one value per entry).
Answer format: value, then unit.

Sample records with inhibition at 99 µM:
compound	inhibition at 99 µM
O=C(Cc1cc2cc(Cl)ccc2[nH]c1=O)NC(Cc1ccccc1)C(=O)Nc1ccc(-c2nnn[nH]2)cc1 (stereo not shown)	18%
O=C1CC(CC(=O)NC(Cc2ccccc2)C(=O)Nc2ccc(-c3nnn[nH]3)cc2)c2cc(Cl)ccc2N1 (stereo not shown)	15%
Cc1cc(N)nc2ccccc12	7%

input: Field: inhibition at 99 µM (Human tPA (Homo sapiens)). Entry: COC(=O)Nc1ccc(-c2nc(CNC(=O)CCc3cc(Cl)ccc3-n3cnnn3)[nH]c2Cl)cc1 [Compound 11, reference compound]
output: 0%

###

Target: Human PKK (Homo sapiens)
Construct: trypsin, plasma kallikrein (PKK), FIXa
Sequence (P03952 391-638 limits assumed): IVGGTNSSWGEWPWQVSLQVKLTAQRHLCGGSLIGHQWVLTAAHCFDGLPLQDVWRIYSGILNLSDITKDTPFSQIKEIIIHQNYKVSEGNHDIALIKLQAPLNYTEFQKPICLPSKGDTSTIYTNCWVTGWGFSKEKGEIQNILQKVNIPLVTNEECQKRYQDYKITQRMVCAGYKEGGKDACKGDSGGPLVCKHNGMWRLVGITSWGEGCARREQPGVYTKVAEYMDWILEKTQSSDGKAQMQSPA
Sequence (P03952 20-390 partner limits assumed): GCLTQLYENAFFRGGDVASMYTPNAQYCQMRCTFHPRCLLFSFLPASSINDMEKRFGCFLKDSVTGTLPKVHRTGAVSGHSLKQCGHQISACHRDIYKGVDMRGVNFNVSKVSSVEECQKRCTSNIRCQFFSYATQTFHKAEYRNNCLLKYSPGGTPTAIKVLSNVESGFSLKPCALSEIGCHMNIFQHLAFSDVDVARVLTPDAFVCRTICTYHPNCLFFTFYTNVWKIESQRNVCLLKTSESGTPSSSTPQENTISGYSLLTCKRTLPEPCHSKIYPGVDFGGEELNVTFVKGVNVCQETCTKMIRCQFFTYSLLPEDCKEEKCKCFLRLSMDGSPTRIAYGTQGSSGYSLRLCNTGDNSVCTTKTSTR
Assay: PKK (plasma kallikrein) chromogenic assay
Experimental: Enzymatic assay. […] Selected compounds were also screened against other serine proteases to evaluate their selectivity profiles. Once the compounds were synthesized and characterized, enzymatic assays were performed to evaluate the inhibitory activity of the resulting compounds against FXIa and other serine proteases. […]
assayEndpoint: pIC50
Convention used: pIC50 is expressed as -log10 of the molar concentration.

Sample records with pIC50:
molecule	pIC50
Cc1c(-c2ccccc2)n[nH]c1C(=O)N(C)Cc1cc(=O)[nH]c2ccc(Cl)cc12	5.08
COC(=O)Nc1ccc(-c2nc(CNC(=O)CCc3cc(Cl)ccc3-n3cnnn3)[nH]c2Cl)cc1 [Compound 11, reference compound]	4.70
O=C(N[C@@H](Cc1ccccc1)C(=O)NCc1cc(=O)[nH]c2ccc(Cl)cc12)c1ccc2[nH]c(=O)cc(O)c2c1	7.57
O=C1CC(CC(=O)NC(Cc2ccccc2)C(=O)Nc2ccc(-c3nnn[nH]3)cc2)c2cc(Cl)ccc2N1 (centres unmarked)	5.64
O=C(CC1Cc2cc(Cl)ccc2NC1=O)NC(Cc1ccccc1)C(=O)Nc1ccc(-c2nnn[nH]2)cc1 (centres unmarked)	4.60
Nc1ccc2c(CNC(=O)[C@H](Cc3ccccc3)NC(=O)c3ccc4[nH]c(=O)cc(O)c4c3)cccc2n1	5.14
O=C(Cc1cc2cc(Cl)ccc2[nH]c1=O)NC(Cc1ccccc1)C(=O)Nc1ccc(-c2nnn[nH]2)cc1 (centres unmarked)	5.00

Kindly consider the entry below.
input: Quick one: pIC50 for CC(=O)N[C@@H](Cc1ccccc1)C(=O)NCc1cc(=O)[nH]c2ccc(Cl)cc12 ?
output: 4.23

###

Here we list compounds with their recorded pIC50 when tested on Human FXIa (Homo sapiens).
Convention used: pIC50 is expressed as -log10 of the molar concentration.

Sample records with pIC50:
compound	system	endpointResult
Nc1ccc2c(CNC(=O)[C@H](Cc3ccccc3)NC(=O)c3ccc4[nH]c(=O)cc(O)c4c3)cccc2n1 [Compound 8]	Human FXIa (Homo sapiens)	6.92
O=C(CC1Cc2cc(Cl)ccc2NC1=O)NC(Cc1ccccc1)C(=O)Nc1ccc(-c2nnn[nH]2)cc1 (stereo not shown) [Compound 21]	Human FXIa (Homo sapiens)	5.72
O=C(N[C@@H](Cc1ccccc1)C(=O)NCc1cc(=O)[nH]c2ccc(Cl)cc12)c1ccc2[nH]c(=O)cc(O)c2c1 [Compound 13]	Human FXIa (Homo sapiens)	9.00
O=C1CC(CC(=O)NC(Cc2ccccc2)C(=O)Nc2ccc(-c3nnn[nH]3)cc2)c2cc(Cl)ccc2N1 (stereo not shown) [Compound 20]	Human FXIa (Homo sapiens)	6.48

Kindly consider the entry below.
input: Field: pIC50 (Human FXIa (Homo sapiens)). Entry: O=C(Cc1cc2cc(Cl)ccc2[nH]c1=O)NC(Cc1ccccc1)C(=O)Nc1ccc(-c2nnn[nH]2)cc1 (stereo not shown) [Compound 22]
output: 5.00

###

Target: Human FXIa (Homo sapiens, UniProt P03951)
Construct: purchased HTI, Essex Junction, USA
Sequence (P03951 388-625): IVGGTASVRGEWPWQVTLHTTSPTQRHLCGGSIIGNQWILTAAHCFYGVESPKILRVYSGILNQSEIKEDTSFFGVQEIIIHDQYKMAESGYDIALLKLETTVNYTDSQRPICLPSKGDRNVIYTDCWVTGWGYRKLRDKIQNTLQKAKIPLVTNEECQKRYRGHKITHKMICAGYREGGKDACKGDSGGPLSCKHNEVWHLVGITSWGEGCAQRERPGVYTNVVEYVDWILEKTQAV
Sequence (P03951 19-387): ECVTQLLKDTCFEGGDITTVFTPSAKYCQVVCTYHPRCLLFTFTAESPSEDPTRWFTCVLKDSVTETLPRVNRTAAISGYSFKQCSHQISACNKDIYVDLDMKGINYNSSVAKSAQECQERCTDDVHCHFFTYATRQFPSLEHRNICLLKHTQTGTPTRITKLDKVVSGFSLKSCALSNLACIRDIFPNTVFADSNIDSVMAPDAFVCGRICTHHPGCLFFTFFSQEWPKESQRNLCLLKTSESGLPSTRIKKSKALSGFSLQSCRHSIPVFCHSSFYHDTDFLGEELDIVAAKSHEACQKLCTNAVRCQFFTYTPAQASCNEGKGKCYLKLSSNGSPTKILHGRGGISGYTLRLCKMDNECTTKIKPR
Assay: FXIa enzymatic chromogenic assay
Assay type: biochemical
Conditions: read-out: FXIa Ki
Form field: pKi (one value per entry).
Convention used: pKi is expressed as -log10 of the molar concentration.

recordSmiles	assayEndpoint	endpointResult
O=C(N[C@@H](Cc1ccccc1)C(=O)NCc1cc(=O)[nH]c2ccc(Cl)cc12)c1ccc2[nH]c(=O)cc(O)c2c1	pKi	9.30

Kindly consider the entry below.
input: Quick one: pKi for O=c1ccc2cc(Cl)ccc2[nH]1 ?
output: 4.15

###

Form field: pKi (one value per entry).
Molecular target: Human FXIa (Homo sapiens)
Construct: purchased HTI, Essex Junction, USA
Test: FXIa enzymatic chromogenic assay
Assay type: biochemical
Convention used: pKi is expressed as -log10 of the molar concentration.

Sample records with pKi:
compound	pKi
CN(Cc1cc(=O)[nH]c2ccc(Cl)cc12)C(=O)[C@H](Cc1ccccc1)N(C)C(=O)c1ccc2[nH]c(=O)cc(O)c2c1	6.07
Cc1c(-c2ccccc2)n[nH]c1C(=O)N(C)Cc1cc(=O)[nH]c2ccc(Cl)cc12	6.39
Cc1c(-c2ccccc2)n[nH]c1C(=O)N(C)Cc1cc(=O)[nH]c2ccccc12	4.30

input: Quick one: pKi for N=C(N)c1ccc2cc(C(=O)Nc3cccc(OCCOCCN)c3)cc(Nc3ncccn3)c2c1 [Compound 4, reference compound] ?
output: 6.92

input: Quick one: pKi for Nc1ccc2c(CNC(=O)[C@H](Cc3ccccc3)NC(=O)c3ccc4[nH]c(=O)cc(O)c4c3)cccc2n1 ?
output: 7.22

input: Quick one: pKi for O=C(CCc1cc(=O)[nH]c2ccc(Cl)cc12)N[C@@H](Cc1ccccc1)C(=O)Nc1ccc(-c2nnn[nH]2)cc1 ?
output: 5.35

input: Quick one: pKi for CC(=O)N[C@@H](Cc1ccccc1)C(=O)NCc1cc(=O)[nH]c2ccc(Cl)cc12 ?
output: 4.80

###

Form field: inhibition at 99 µM (one value per entry).
Biological target: UniProtKB P00750
Test: biochemical
Conditions: read-out: tPA % inhibition at 99 μM
Give a bare numeral; the unit % is implied.

Sample records with inhibition at 99 µM:
compound	assayEndpoint	unitName	endpointResult
CC(=O)N[C@@H](Cc1ccccc1)C(=O)NCc1cc(=O)[nH]c2ccc(Cl)cc12	inhibition at 99 µM	%	3
O=C(CC1Cc2cc(Cl)ccc2NC1=O)NC(Cc1ccccc1)C(=O)Nc1ccc(-c2nnn[nH]2)cc1 (stereo not shown)	inhibition at 99 µM	%	3
O=c1ccc2cc(Cl)ccc2[nH]1	inhibition at 99 µM	%	0

Kindly consider the entry below.
input: Quick one: inhibition at 99 µM for O=C(N[C@@H](Cc1ccccc1)C(=O)NCc1cc(=O)[nH]c2ccc(Cl)cc12)c1ccc2[nH]c(=O)cc(O)c2c1 ?
output: 2

###

Molecular target: Human FXa (Homo sapiens)
Assay: biochemical
Settings: read-out: FXa % inhibition at 99 μM
Form field: inhibition at 99 µM (one value per entry).
Give a bare numeral; the unit % is implied.

recordSmiles	inhibition at 99 µM / %
O=C(N[C@@H](Cc1ccccc1)C(=O)NCc1cc(=O)[nH]c2ccc(Cl)cc12)c1ccc2[nH]c(=O)cc(O)c2c1	18

input: Quick one: inhibition at 99 µM for CC(=O)N[C@@H](Cc1ccccc1)C(=O)NCc1cc(=O)[nH]c2ccc(Cl)cc12 ?
output: 0

input: Quick one: inhibition at 99 µM for Cc1cc(N)nc2ccccc12 ?
output: 9

input: Quick one: inhibition at 99 µM for O=c1ccc2cc(Cl)ccc2[nH]1 ?
output: 31

###

Form field: inhibition at 99 µM (one value per entry).
Molecular target: Human FXa (Homo sapiens, UniProt P00742)
Sequence (P00742 235-488 limits assumed): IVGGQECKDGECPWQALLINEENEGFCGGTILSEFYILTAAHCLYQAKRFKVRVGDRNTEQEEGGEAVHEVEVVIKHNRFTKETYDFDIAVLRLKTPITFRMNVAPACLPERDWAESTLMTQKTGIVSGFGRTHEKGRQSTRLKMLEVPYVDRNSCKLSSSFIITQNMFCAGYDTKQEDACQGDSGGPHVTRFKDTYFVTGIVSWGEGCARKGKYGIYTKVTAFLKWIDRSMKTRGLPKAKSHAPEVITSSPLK
Sequence (P00742 41-179 partner limits assumed): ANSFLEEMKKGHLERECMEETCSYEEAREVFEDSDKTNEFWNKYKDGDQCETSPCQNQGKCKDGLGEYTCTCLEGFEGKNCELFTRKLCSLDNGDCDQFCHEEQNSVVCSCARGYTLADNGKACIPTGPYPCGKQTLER
Assay: biochemical
Conditions: read-out: FXa % inhibition at 99 μM
Give a bare numeral; the unit % is implied.

Sample records with inhibition at 99 µM:
compound	endpointResult
O=C(CC1Cc2cc(Cl)ccc2NC1=O)NC(Cc1ccccc1)C(=O)Nc1ccc(-c2nnn[nH]2)cc1 (stereo not shown)	0
O=C1CC(CC(=O)NC(Cc2ccccc2)C(=O)Nc2ccc(-c3nnn[nH]3)cc2)c2cc(Cl)ccc2N1 (stereo not shown)	12
O=C(Cc1cc2cc(Cl)ccc2[nH]c1=O)NC(Cc1ccccc1)C(=O)Nc1ccc(-c2nnn[nH]2)cc1 (stereo not shown)	24

Kindly consider the entry below.
input: Quick one: inhibition at 99 µM for COC(=O)Nc1ccc(-c2nc(CNC(=O)CCc3cc(Cl)ccc3-n3cnnn3)[nH]c2Cl)cc1 [Compound 11, reference compound] ?
output: 6

###

Target: UniProt:P00740
Sequence (P00740 227-461 limits assumed): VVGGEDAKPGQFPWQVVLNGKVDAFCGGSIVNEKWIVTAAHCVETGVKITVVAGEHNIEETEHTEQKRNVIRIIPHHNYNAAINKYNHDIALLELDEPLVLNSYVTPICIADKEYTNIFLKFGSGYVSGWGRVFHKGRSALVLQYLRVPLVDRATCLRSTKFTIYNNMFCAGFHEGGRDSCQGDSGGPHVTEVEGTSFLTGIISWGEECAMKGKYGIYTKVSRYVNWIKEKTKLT
Sequence (P00740 47-191 partner limits assumed): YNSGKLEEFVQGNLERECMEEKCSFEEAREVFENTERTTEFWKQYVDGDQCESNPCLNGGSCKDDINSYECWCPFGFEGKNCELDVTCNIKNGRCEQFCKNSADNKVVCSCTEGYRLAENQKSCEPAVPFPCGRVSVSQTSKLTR
Experiment: biochemical
Settings: read-out: FIXa % inhibition at 99 μM
Response key: criterion met means inhibition at 99 µM >= 4%; criterion not met means inhibition at 99 µM < 4%.

Take a look at these entries with their results.
compound	system	classification
COC(=O)Nc1ccc(-c2nc(CNC(=O)CCc3cc(Cl)ccc3-n3cnnn3)[nH]c2Cl)cc1 [Compound 11, reference compound]	UniProt:P00740	criterion not met
O=C(N[C@@H](Cc1ccccc1)C(=O)NCc1cc(=O)[nH]c2ccc(Cl)cc12)c1ccc2[nH]c(=O)cc(O)c2c1	UniProt:P00740	criterion not met
O=c1ccc2cc(Cl)ccc2[nH]1	UniProt:P00740	criterion not met
Cc1cc(N)nc2ccccc12	UniProt:P00740	criterion met

input: Hello, I need to know if O=C(CC1Cc2cc(Cl)ccc2NC1=O)NC(Cc1ccccc1)C(=O)Nc1ccc(-c2nnn[nH]2)cc1 (centres unmarked) has measured inhibition at 99 µM not below 4%. Thanks!
output: criterion not met

input: Hello, I need to know if O=C(Cc1cc2cc(Cl)ccc2[nH]c1=O)NC(Cc1ccccc1)C(=O)Nc1ccc(-c2nnn[nH]2)cc1 (centres unmarked) has measured inhibition at 99 µM not below 4%. Thanks!
output: criterion met
